Task for the reader: assign each of the following compounds its reported inhibition.
# Experiment Description: inhibitors of TNFa-induced NFkB p65 translocation, primary screen, imaging, HUVEC, MLSMR starter and 10KST1 sets (AID 438);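 note: compound added about 3h40 before a 20 min TNFalpha stimulation; signal is the nuclear over cytoplasmic p65 intensity ratio per well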
# Cond: HUVEC TNFa-induced p65 nuclear translocation; at 2 µM, active compounds read high, 0% TNFa-plus-vehicle, 100% no-TNFa wells
The source made the active and inactive calls.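 Rule for the calls: active = inhibition above 20% together with a positive visual image hit; inconclusive = visual image hit but inhibition not above 20%; inactive = no visual image hit.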

Query (compound): COc1cc(CO)cc(-c2cc(CO)cc(OC)c2OC)c1OC ; field requested: inhibition
3.5% (inactive)

Query (compound): COCCn1c(=O)[nH]c2cc(C(=O)N3CCN(c4ccccc4OC)CC3)ccc2c1=O ; field requested: inhibition
-7.9% (inactive)

Query (compound): CC(C)COc1ccc(C(=O)OCCN2CCOCC2)cc1 ; field requested: inhibition
2.3% (inactive)

Query (compound): COc1cccc(Nc2nc(=O)[nH]nc2C)c1 ; field requested: inhibition
-0.7% (inactive)

Query (compound): CCc1cc2c(=O)c(-c3ccc4c(c3)OCCO4)coc2cc1OC(=O)c1ccco1 ; field requested: inhibition
-5.2% (inactive)

Query (compound): CCN(CC)C(=O)C1CCN(CC2CC=CCC2)CC1 (stereo unspecified) ; field requested: inhibition
-8.2% (inactive)
